# IC50 at 10 min per record follows
- Subject of test: CYP3A4 (Homo sapiens, UniProt P08684)
- Sequence (P08684 2-503): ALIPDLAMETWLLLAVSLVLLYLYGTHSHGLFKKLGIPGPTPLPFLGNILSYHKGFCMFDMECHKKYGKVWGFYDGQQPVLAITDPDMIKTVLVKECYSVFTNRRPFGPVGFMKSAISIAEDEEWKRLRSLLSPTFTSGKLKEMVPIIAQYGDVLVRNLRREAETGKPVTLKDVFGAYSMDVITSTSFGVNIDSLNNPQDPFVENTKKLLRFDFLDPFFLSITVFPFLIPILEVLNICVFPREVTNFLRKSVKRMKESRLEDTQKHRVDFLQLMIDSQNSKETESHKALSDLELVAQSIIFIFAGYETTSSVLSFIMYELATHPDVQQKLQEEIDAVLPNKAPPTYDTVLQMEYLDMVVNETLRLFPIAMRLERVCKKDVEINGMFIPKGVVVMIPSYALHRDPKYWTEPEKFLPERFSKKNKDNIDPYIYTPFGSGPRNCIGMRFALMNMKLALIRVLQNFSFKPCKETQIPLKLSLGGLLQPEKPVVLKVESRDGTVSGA
- Procedure details: Measurement of CYP3A4 inhibitory activity (midazolam 1'-hydroxylation in human hepatic microsomes, DI and MBI)
- Type: in vitro ADME
- Experimental context: human hepatic (liver) microsomes, probe midazolam (1'-hydroxylation), direct inhibition, midazolam, 37° C. 10 minutes, inventive compounds (Table 4), read-out: CYP3A inhibitory IC50 (μmol/L) DI
- Procedure: The measurement of CYP3A4 inhibitory activity was performed with reference to the method of Newton et al. (Drug Metab. Dispos. 23, 154-158 (1995)) and the method described in JP 2007-236327 A. […] MBI (mechanism based inhibition) was evaluated as follows. […] The amount of 1′-hydroxymidazolam produced was measured in the quenched sample with an LC-MS/MS. […]
Output spec: scalar in µmol/L, unitless text.

Given smiles	Unit text	Measurement
CC(C)[C@H](NC(=O)C1(NC(=O)N2CCSC2)CCCCC1)C(=O)C(=O)N[C@H]1CCCCNC1=O	µmol/L	43.5

Specify measured IC50 at 10 min for CC(C)[C@H](NC(=O)C1(NC(=O)[C@H]2CCCO2)CCCCC1)C(=O)C(=O)N[C@H]1CCCCNC1=O .
208

Specify measured IC50 at 10 min for CC(C)[C@H](NC(=O)C1(NC(=O)N2CCCC2)CCCCC1)C(=O)C(=O)N[C@H]1CCCCNC1=O .
101

----------
# IC50 per record follows
- Subject of test: CYP3A4 (Homo sapiens)
- Procedure details: Measurement of CYP3A4 inhibitory activity (midazolam 1'-hydroxylation in human hepatic microsomes, DI and MBI)
- Format: in vitro ADME
- Experimental context: human hepatic (liver) microsomes, probe midazolam (1'-hydroxylation), mechanism based inhibition, pre-incubated 37° C. 30 minutes before midazolam, inventive compounds (Table 4), read-out: CYP3A inhibitory IC50 (μmol/L) MBI
Output spec: scalar in µmol/L, unitless text.

Specify measured IC50 for CC(C)[C@H](NC(=O)C1(NC(=O)[C@H]2CCCO2)CCCCC1)C(=O)C(=O)N[C@H]1CCCCNC1=O .
137

Specify measured IC50 for CC(C)[C@H](NC(=O)C1(NC(=O)N2CCCC2)CCCCC1)C(=O)C(=O)N[C@H]1CCCCNC1=O .
73.1

Specify measured IC50 for CC(C)[C@H](NC(=O)C1(NC(=O)N2CCSC2)CCCCC1)C(=O)C(=O)N[C@H]1CCCCNC1=O .
44.4

The reported numbers originate from patent US9562042B2.
